Ref: PubChem BioAssay AID1546

# assayTarget: Neuropeptide Y receptor type 1 (Homo sapiens)
# experimentalProtocol: human Y1 receptor positive modulation or activation – cell-based, confirmation (AID 1546);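 also: cells challenged with NPY at its EC10 plus isoproterenol stimulus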
# testSettings: cell-based NPY-Y1 potentiator/agonist assay; at 3.6 µM; stronger effect = higher value
This is one part of the list.
Can you tell me activation for the items I'm about to list?
Give the value in % but do not write % after it.

Can you look up the measured activation of `O=C(c1cccs1)N1CCN(C(=O)N2CCOCC2)CC1` for me?
-4.4

Follow-up item: CC(=O)c1ccc(NC(=O)C2CC(=O)Nc3nc4ccccc4n32)cc1 (stereo not drawn)
38.7

Follow-up item: `COC(=O)c1ccc(NC(=O)CN(c2ccc(C)cc2)S(=O)(=O)c2c(C)n[nH]c2C)cc1`
43

Follow-up item: `CCn1c2ccccc2c2cc(NC(=O)Nc3ccc([N+](=O)[O-])cc3C)ccc21`
26.1

Follow-up item: `O=C(Nc1ccc2c(c1)CCC2)c1cccc(S(=O)(=O)Nc2ccccc2Cl)c1`
5.62

Follow-up item: COCCn1nnnc1C(c1ccccc1Cl)N1CCN(c2ccccc2OC)CC1 (stereo not drawn)
-14.9

Follow-up item: `O=C1/C(=C/c2coc3ccc(O)cc3c2=O)SC(=S)N1c1ccccc1`
26.1

Follow-up item: CN1C(=O)c2ccccc2C(C(=O)NCCCN2CCCC2)C1c1c[nH]c2ccccc12 (stereo not drawn)
7.17
